Where do these numbers come from? They come from patent US20210238260.

target: Factor X, P00742
Sequence (P00742 whole entry, looked up): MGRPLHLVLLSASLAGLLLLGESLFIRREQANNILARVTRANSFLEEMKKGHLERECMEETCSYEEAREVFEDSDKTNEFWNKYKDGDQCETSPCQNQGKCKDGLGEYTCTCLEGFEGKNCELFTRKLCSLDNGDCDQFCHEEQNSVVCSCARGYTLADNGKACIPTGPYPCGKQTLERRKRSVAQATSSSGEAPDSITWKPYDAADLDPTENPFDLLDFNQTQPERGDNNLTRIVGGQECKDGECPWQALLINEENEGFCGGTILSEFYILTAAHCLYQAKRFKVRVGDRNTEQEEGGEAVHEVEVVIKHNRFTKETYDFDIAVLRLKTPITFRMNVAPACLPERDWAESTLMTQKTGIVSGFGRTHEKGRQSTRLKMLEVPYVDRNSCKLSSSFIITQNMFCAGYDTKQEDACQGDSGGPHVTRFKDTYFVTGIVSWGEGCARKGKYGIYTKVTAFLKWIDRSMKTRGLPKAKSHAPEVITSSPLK
measure_name: % of WT kcat/KM (%)

>  <protein>
FIXa-Y155F/R318Y/R338E/E410N (mature FIX numbering) (protein) chain 1: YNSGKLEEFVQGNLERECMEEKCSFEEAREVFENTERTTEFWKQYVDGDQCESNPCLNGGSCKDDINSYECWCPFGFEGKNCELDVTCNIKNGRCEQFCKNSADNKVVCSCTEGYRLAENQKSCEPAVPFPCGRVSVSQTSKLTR chain 2: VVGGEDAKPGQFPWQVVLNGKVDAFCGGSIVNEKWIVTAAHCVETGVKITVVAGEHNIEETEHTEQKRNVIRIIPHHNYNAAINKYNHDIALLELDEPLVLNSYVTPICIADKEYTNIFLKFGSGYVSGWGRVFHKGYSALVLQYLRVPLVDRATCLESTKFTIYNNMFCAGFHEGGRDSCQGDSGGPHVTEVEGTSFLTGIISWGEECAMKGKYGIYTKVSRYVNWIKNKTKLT

>  <measure_name>
% of WT kcat/KM

>  <unit_of_measure>
%

>  <recorded_measurement>
835

$$$$
